System: RPMI-8226
assay text: NCI tumour cell line growth inhibition, 48 h
Active and inactive are the calls of the source. Rule as the data show it: active = GI50 up to about 1.1 µM and inactive = higher.
measured quantity: GI50

>>> result("O=C1NC2OCC(O)C(O1)C2O (stereo not given)")
"> 100 µM (inactive)"
>>> result("CN(C)/N=C(/c1nc2ccc(Cl)cc2nc1O)C(O)c1ccc(C(O)/C(=N\\N(C)C)c2nc3ccc(Cl)cc3nc2O)cc1 (stereo not given)")
"14.1 µM (inactive)"
>>> result("CC1=NN(c2cccc(Cl)c2)C2(C1)C(Cl)C(=O)N2c1nc2ccccc2s1 (stereo not given)")
"17.3 µM (inactive)"
>>> result("CC(C)(O)C1CC[C@]2(C)CC[C@]3(C)[C@H](CC[C@@H]4[C@@]5(C)CC[C@H](O)C(C)(C)[C@@H]5CC[C@]43C)[C@@H]12 (stereo not given in full)")
"34.3 µM (inactive)"
>>> result("Nc1nc(Cl)c(C=O)c(NCC2(CO)CC(CCc3ccccc3)C2)n1 (stereo not given)")
"12.4 µM (inactive)"
>>> result("COc1cc([C@@H]2c3cc4c(cc3[C@@H](OC(=O)c3ccccc3)C3COC(=O)[C@@H]32)OCO4)cc(OC)c1O (stereo not given in full)")
"0.012 µM (active)"
>>> result("CC(C)=CCN1c2ccc(Cl)cc2NC(=O)CC1C (stereo not given)")
"22.1 µM (inactive)"
>>> result("c1ccc2c(c1)nnn2CNc1ccc(N2CCOCC2)cc1")
"47.4 µM (inactive)"
>>> result("CN(C)CCCNc1c2ccccc2[n+]([O-])c2ccccc12")
"46.7 µM (inactive)"
>>> result("C=CC(=O)C#CC#CC/C=C\\CCCCCCC")
"5.6 µM (inactive)"
